# Tested on: RPMI-8226 leukemia
# assay text: NCI tumour cell line growth inhibition, 48 h
Entries annotated with measured GI50

{"smiles string": "[C-]#[O+].[Cl][Sn]([Cl])[Cl].[Cl][Sn]([Cl])[Cl].[Pt].c1ccc([PH+](c2ccccc2)c2ccccc2)cc1.c1ccc([PH+](c2ccccc2)c2ccccc2)cc1", "target desc": "RPMI-8226 leukemia", "GI50": "27.7 µM"}
{"smiles string": "Cc1cc2cccnc2c2ncccc12", "target desc": "RPMI-8226 leukemia", "GI50": "2.43 µM"}
{"smiles string": "Cn1cc(C2=C(c3c4n(c5ccccc35)CCCC4)C(=O)NC2=O)c2ccccc21", "target desc": "RPMI-8226 leukemia", "GI50": "> 15.6 µM"}
{"smiles string": "NC(=O)c1cc(-c2ccncc2)cc(-c2ccccc2)c1N", "target desc": "RPMI-8226 leukemia", "GI50": "11.6 µM"}
{"smiles string": "Cc1csc(/C=N/NC(=O)c2nnn(-c3ccnc4c(C(F)(F)F)cccc34)c2C)c1", "target desc": "RPMI-8226 leukemia", "GI50": "33.7 µM"}
{"smiles string": "COc1ccc(Cl)cc1Nc1nc(C(F)(F)F)ccc1C(=O)N/N=C/c1ccc([N+](=O)[O-])cc1", "target desc": "RPMI-8226 leukemia", "GI50": "1.6 µM"}
{"smiles string": "CC(=O)Nc1ccc(-c2c3nc(c(-c4cc5ccccc5[n+](C)c4)c4ccc([nH]4)c(-c4ccc(NC(C)=O)cc4)c4nc(c(-c5cc6ccccc6[n+](C)c5)c5ccc2[nH]5)C=C4)C=C3)cc1", "target desc": "RPMI-8226 leukemia", "GI50": "21.6 µM"}
{"smiles string": "Cc1onc(-c2c(F)cccc2Cl)c1-c1ncc(-c2ccc(Cl)cc2)o1", "target desc": "RPMI-8226 leukemia", "GI50": "2.77 µM"}

The origin of these recorded values is PubChem BioAssay (NCI).
